# Test system: SLPI production, A549 cells
# run-description: SLPI production by A549 cells (ELISA)
# Assay type: cell-based
# particulars: Homo sapiens, A549; read-out: EC50, induction of SLPI
reported-metric: EC50 (nM)

• C[C@@H]1C[C@H]2[C@@H]3CCC4=CC(=O)C=C[C@]4(C)[C@@]3(F)[C@@H](O)C[C@]2(C)[C@@]1(O)C(=O)CO = 9
